system.tested: T1, Recombinant protein RHAMM-CT (truncated RHAMM, carboxy terminus containing the HA binding domain, amino acids … (UniProt Q00547 706-766))
T1 chain: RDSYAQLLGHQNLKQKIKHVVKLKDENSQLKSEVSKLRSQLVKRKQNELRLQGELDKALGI
protocol.text: SPR
Ends that are not written are not given here.
Kd by entry:
measurement.name: Kd (nM)

{"binder": "SVEAEAEEGEEY-NH2 (Synthetic 12-mer made on Rink amide MBHA resin) [peptide 3a (SEQ ID NO: 3), unmodified tubulin-derived peptide, alpha-IIIc CTT]", "comparator": "=", "assay.result": 331}
{"binder": "DSADGEDEGEEY [SEQ ID NO 2 (tubulin-derived peptide containing the DEXEEZ motif)]", "comparator": "<", "assay.result": 1000}
{"binder": "VEGEGEEEGEEY-NH2 (Synthetic 12-mer made on Rink amide MBHA resin; also called ala-CTT) [peptide 1a (SEQ ID NO: 1), unmodified tubulin-derived peptide, alpha-Ia CTT]", "comparator": "=", "assay.result": 24}
{"binder": "LEKDYEEVGVDS [6]", "comparator": "=", "assay.result": 330}
{"binder": "GEFSEAREDMAA [7]", "comparator": "=", "assay.result": 180}
{"binder": "IDSYEDEDEGEE [SEQ ID NO 4 (tubulin-derived peptide containing the DEXEEZ motif)]", "comparator": "<", "assay.result": 1000}
{"binder": "DSFEEENEGEEF [5]", "comparator": "<", "assay.result": 1000}
{"binder": "FVHWYVGEGMEE [8]", "comparator": "=", "assay.result": 176}
{"binder": "EEDFGEEAEEEA-NH2 (Synthetic 12-mer made on Rink amide MBHA resin) [peptide 9a (SEQ ID NO: 9), unmodified tubulin-derived peptide, beta-Ia CTT]", "comparator": "=", "assay.result": 32}
